molecular target: GTPase KRas (Homo sapiens, UniProt P01116, G12C); assay: Covalent binding affinity to KRAS G12C mutant at Cys12 residue in human NCI-H358 cells assessed as reduction of log2 H/L ratio for tryptic peptide […] incubated for 4 hrs followed by cell lysis and subsequently labelled with light thiol probe N-((S)-18-iodo-11-isopropyl-10,13,17-trioxo-3,6-dioxa-9,12,16-triazaoctadecyl)-6-((4R,5S)-5-methyl-2-oxoimidazolidin-4-yl)hexanamide and heavy thiol probe 4 for 1 hr under dark conditions followed by tryptic digestion for overnight and measured by ABPP target occupancy based UHPLC Q-SIM MS analysis
readout.name: IC50 (nM)
Give the number; nM is assumed, so skip it.

### Prompt State the recorded IC50 for this entry: `C=CC(=O)N1CCN(c2ncnc3c(F)c(-c4c(O)cccc4F)c(Cl)cc23)CC1`
### Response 1800
